The reader will find reported EC50 values listed item by item below.
- Tested on: HIV-1 EFVR (K103R + V179D + P225H)
- experimentNotes: Inhibition of virus-induced cytopathogenicity in MT-4 cells, NNRTI-resistant mutant EFVR
- Type: cell-based
- conditionParameters: Human immunodeficiency virus 1, MT4, read-out: EC50 EFVR

[
  {
    "compound": "Cc1ccc(S(=O)(=O)Nn2sc3ccccc3c2=O)cc1 [Compound 7]",
    "EC50 / µM": 8
  },
  {
    "compound": "O=c1c2ccccc2sn1N(S(=O)(=O)c1ccc([N+](=O)[O-])cc1)S(=O)(=O)c1ccc([N+](=O)[O-])cc1 [Compound 22]",
    "EC50 / µM": 21
  },
  {
    "compound": "O=c1c2ccccc2sn1NS(=O)(=O)c1ccccc1F [Compound 10]",
    "EC50 / µM": 5
  },
  {
    "compound": "O=c1c2ccccc2sn1NS(=O)(=O)c1cccc(Cl)c1 [Compound 14]",
    "EC50 / µM": 7
  },
  {
    "compound": "O=c1c2ccccc2sn1N(S(=O)(=O)c1ccccc1)S(=O)(=O)c1ccccc1 [Compound 20]",
    "EC50 / µM": 22
  },
  {
    "compound": "O=c1c2ccccc2sn1NS(=O)(=O)c1ccc([N+](=O)[O-])cc1 [Compound 8]",
    "EC50 / µM": 9
  },
  {
    "compound": "O=C1Nc2ccc(Cl)cc2[C@@](C#CC2CC2)(C(F)(F)F)O1 [EFV, efavirenz, reference compound]",
    "EC50 / µM": 3
  },
  {
    "compound": "O=c1c2ccccc2sn1NS(=O)(=O)c1ccc(Cl)c(Cl)c1 [Compound 15]",
    "EC50 / µM": 8
  },
  {
    "compound": "O=c1c2ccccc2sn1N(S(=O)(=O)c1ccc(Cl)cc1)S(=O)(=O)c1ccc(Cl)cc1 [Compound 24]",
    "EC50 / µM": 65
  },
  {
    "compound": "O=c1c2ccccc2sn1NS(=O)(=O)c1ccccc1 [Compound 6]",
    "EC50 / µM": 7
  }
]

src = paper PMC12627007
